Test: in vivo
Conditions: male, Wistar, rat, plasma, po, 100 mg/kg
EXPERIMENTAL_READOUT: k el (s⁻¹)
Field format: number, assumed s⁻¹, no unit text.

Enquiry: Quick one: give measured k el for CN(C)C(=N)N=C(N)N [metformin]
Return: 8.33e-06

====

Assay: Plasma pharmacokinetics of sorafenib and sorafenib N-oxide in rats (HPLC-UV);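 note: pharmacokinetic parameters were computed with Phoenix WinNonlin 8.0 software from the plasma concentration–time curve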
Settings: male, Wistar, rat, plasma, po, 100 mg/kg, Cmax, rat plasma; single oral sorafenib 100 mg/kg + metformin 100 mg/kg b.w. (IISOR+MET group)
EXPERIMENTAL_READOUT: Cmax (ng/mL)
Field format: number, assumed ng/mL, no unit text.

Enquiry: Quick one: give measured Cmax for CNC(=O)c1cc(Oc2ccc(NC(=O)Nc3ccc(Cl)c(C(F)(F)F)c3)cc2)ccn1
Return: 1270
